- PROCEDURE TEXT: Approximate solubility in different solvents at approximate 23° C.
- Format: physicochemical
- DETAILS: organic solvent or mixture, thermodynamic from solid, Ethanol absolute
MEASURED ATTRIBUTE: solubility

- CC(C)CN(C[C@@H](O)[C@H](Cc1ccccc1)NC(=O)O[C@H]1CO[C@H]2OCC[C@H]21)S(=O)(=O)c1ccc(N)cc1 [Form A]: < 3400 µg/mL

###

- PROCEDURE TEXT: Aqueous solubility in solvents with different pH (excess solute equilibrated at 20° C., UV spectrometry)
- Format: physicochemical
- DETAILS: pH 2, aqueous buffer, Buffer pH 2 (citrate/HCl) (pH 2.0), at least 24 hours
MEASURED ATTRIBUTE: solubility thermodynamic (µg/mL)

* CC(C)CN(C[C@@H](O)[C@H](Cc1ccccc1)NC(=O)O[C@H]1CO[C@H]2OCC[C@H]21)S(=O)(=O)c1ccc(N)cc1 [Form A] | 180

###

- PROCEDURE TEXT: Aqueous solubility in solvents with different pH (excess solute equilibrated at 20° C., UV spectrometry)
- Format: physicochemical
- DETAILS: pH 4, aqueous buffer, Buffer pH 4 (citrate/HCl) (pH 4.0), at least 48 hours
MEASURED ATTRIBUTE: solubility thermodynamic (µg/mL)

• CC(C)CN(C[C@@H](O)[C@H](Cc1ccccc1)NC(=O)O[C@H]1CO[C@H]2OCC[C@H]21)S(=O)(=O)c1ccc(N)cc1 [Form K] = 110

###

- PROCEDURE TEXT: Approximate solubility in different solvents at approximate 23° C.
- Type: physicochemical
- DETAILS: organic solvent or mixture, thermodynamic from solid, Dichloromethane
MEASURED ATTRIBUTE: solubility

* CC(C)CN(C[C@@H](O)[C@H](Cc1ccccc1)NC(=O)O[C@H]1CO[C@H]2OCC[C@H]21)S(=O)(=O)c1ccc(N)cc1 [Form A] | 105 to 209 mg/mL

###

- PROCEDURE TEXT: Aqueous solubility in solvents with different pH (excess solute equilibrated at 20° C., UV spectrometry)
- Format: physicochemical
- DETAILS: pH 2, aqueous buffer, Buffer pH 2 (citrate/HCl) (pH 2.0), at least 48 hours
MEASURED ATTRIBUTE: solubility thermodynamic

* CC(C)CN(C[C@@H](O)[C@H](Cc1ccccc1)NC(=O)O[C@H]1CO[C@H]2OCC[C@H]21)S(=O)(=O)c1ccc(N)cc1 [Form K] | 210 µg/mL

###

- PROCEDURE TEXT: Approximate solubility in different solvents at approximate 23° C.
- Assay type: physicochemical
- DETAILS: water, thermodynamic from solid
MEASURED ATTRIBUTE: solubility

- CC(C)CN(C[C@@H](O)[C@H](Cc1ccccc1)NC(=O)O[C@H]1CO[C@H]2OCC[C@H]21)S(=O)(=O)c1ccc(N)cc1 [Form A]: < 3500 µg/mL

###

- PROCEDURE TEXT: Approximate solubility in different solvents at approximate 23° C.
- Type: physicochemical
- DETAILS: organic solvent or mixture, thermodynamic from solid, Ethylmethylketone
MEASURED ATTRIBUTE: solubility

- CC(C)CN(C[C@@H](O)[C@H](Cc1ccccc1)NC(=O)O[C@H]1CO[C@H]2OCC[C@H]21)S(=O)(=O)c1ccc(N)cc1 [Form A]: 102 to 204 mg/mL
